Biological target: MBP-FoxP3dN (Mus musculus, UniProt Q99JB6 188-423)
Sequence: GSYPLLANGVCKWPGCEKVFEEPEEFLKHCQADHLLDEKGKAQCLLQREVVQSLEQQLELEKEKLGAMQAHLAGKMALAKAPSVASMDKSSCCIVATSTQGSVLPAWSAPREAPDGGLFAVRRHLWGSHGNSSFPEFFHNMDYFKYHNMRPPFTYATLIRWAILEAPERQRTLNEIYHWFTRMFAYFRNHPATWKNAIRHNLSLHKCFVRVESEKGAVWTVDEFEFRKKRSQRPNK
Experiment: PD-seq (MBP pull-down with sequencing); 20 mM Tris-HCl pH 7.5, 100 mM NaCl, 1.5 mM MgCl2, 0.4 uM protein, 0.1 uM dsDNA library, 30 min, room temperature, amylose pull-down; high values mean tight binding
Details: protein: recombinant; tags: His6-MBP; chain copies: 2; dsDNA, one strand shown
Over roughly 16,000 sequences, “rpm ratio (pull-down/input)” has its median near 0.5; the highest 2% begin near 5.5. This excerpt belongs to a sample that is enriched for the highest values.
QUANTITY KIND: binding signal

# annotated cases, reported binding signal shown
SEQ TEXT	binding signal
GATGATTGTTCTCCCAGCTGATGAATTCTTTTGTTCGAGTAAACAAATTTTCCTAATCTTTCTGTTCAAGCGCCATCTAC	0.487 RPM ratio (pull-down/input)
GATGATTGTTCTCCCAGCTGATGAATTTAGTATATCGAGTAAACAAATTTTCCTAATCTTTCTGTTCAAGCGCCATCTAC	2.93 RPM ratio (pull-down/input)
GATGATTGTTCTCCCAGCTGATGAATTATGATAATCGAGTAAACAAATTTTCCTAATCTTTCTGTTCAAGCGCCATCTAC	0.653 RPM ratio (pull-down/input)
GATGATTGTTCTCCCAGCTGATGAATTAGTTCTTTCGAGTAAACAAATTTTCCTAATCTTTCTGTTCAAGCGCCATCTAC	0.409 RPM ratio (pull-down/input)
GATGATTGTTCTCCCAGCTGATGAATTATTACATTCGAGTAAACAAATTTTCCTAATCTTTCTGTTCAAGCGCCATCTAC	0.591 RPM ratio (pull-down/input)
GATGATTGTTCTCCCAGCTGATGAATTAGTCTGATCGAGTAAACAAATTTTCCTAATCTTTCTGTTCAAGCGCCATCTAC	0.373 RPM ratio (pull-down/input)

Switching to the query record.
For GATGATTGTTCTCCCAGCTGATGAATTTCGCGAGTCGAGTAAACAAATTTTCCTAATCTTTCTGTTCAAGCGCCATCTAC , what is its reported binding signal? 0.675 RPM ratio (pull-down/input)

---

Biological target: MBP-FoxP3dN (Mus musculus, UniProt Q99JB6 188-423)
Sequence: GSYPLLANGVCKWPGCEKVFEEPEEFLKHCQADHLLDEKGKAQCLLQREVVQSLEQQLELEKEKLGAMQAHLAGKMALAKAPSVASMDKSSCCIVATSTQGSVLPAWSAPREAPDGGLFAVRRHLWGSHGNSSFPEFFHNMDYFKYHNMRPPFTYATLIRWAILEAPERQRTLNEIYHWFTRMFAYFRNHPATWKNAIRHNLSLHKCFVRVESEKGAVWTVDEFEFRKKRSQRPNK
Assay: PD-seq (MBP pull-down with sequencing); 20 mM Tris-HCl pH 7.5, 100 mM NaCl, 1.5 mM MgCl2, 0.4 uM protein, 0.1 uM dsDNA library, 30 min, room temperature, amylose pull-down; high values mean tight binding
Conditions: protein: recombinant; tags: His6-MBP; chain copies: 2; dsDNA, one strand shown
Whole data set: some 16,000 sequences, median “rpm ratio (pull-down/input)” near 0.5, cut for the highest 2% near 5.5. The entries come from a sample that favours the highest values as a whole.
Let's look at some sequences and their measured binding signal.

# annotated cases, reported binding signal shown
SEQ TEXT	MEASUREMENT TARGET	QUANTITY KIND	READING
GATGATTGTTCTCCCAGCTGATGAATTTTTTTGTTCGAGTAAACAAATTTTCCTAATCTTTCTGTTCAAGCGCCATCTAC	MBP-FoxP3dN (Mus musculus, UniProt Q99JB6 188-423)	binding signal	0.472 RPM ratio (pull-down/input)
GATGATTGTTCTCCCAGCTGATGAATTTATGTTGTCGAGTAAACAAATTTTCCTAATCTTTCTGTTCAAGCGCCATCTAC	MBP-FoxP3dN (Mus musculus, UniProt Q99JB6 188-423)	binding signal	4.93 RPM ratio (pull-down/input)
GATGATTGTTCTCCCAGCTGATGAATTAAGCCGATCGAGTAAACAAATTTTCCTAATCTTTCTGTTCAAGCGCCATCTAC	MBP-FoxP3dN (Mus musculus, UniProt Q99JB6 188-423)	binding signal	0.427 RPM ratio (pull-down/input)
GATGATTGTTCTCCCAGCTGATGAATTGTTTTTTTCGAGTAAACAAATTTTCCTAATCTTTCTGTTCAAGCGCCATCTAC	MBP-FoxP3dN (Mus musculus, UniProt Q99JB6 188-423)	binding signal	4.84 RPM ratio (pull-down/input)
GATGATTGTTCTCCCAGCTGATGAATTGTTTATGTCGAGTAAACAAATTTTCCTAATCTTTCTGTTCAAGCGCCATCTAC	MBP-FoxP3dN (Mus musculus, UniProt Q99JB6 188-423)	binding signal	7 RPM ratio (pull-down/input)

For GATGATTGTTCTCCCAGCTGATGAATTATGTTTGTCGAGTAAACAAATTTTCCTAATCTTTCTGTTCAAGCGCCATCTAC , what is its reported binding signal? 7.57 RPM ratio (pull-down/input)

Likewise for GATGATTGTTCTCCCAGCTGATGAATTGCCTCCATCGAGTAAACAAATTTTCCTAATCTTTCTGTTCAAGCGCCATCTAC ? 1.28 RPM ratio (pull-down/input)

Likewise for GATGATTGTTCTCCCAGCTGATGAATTTGTTTGTTCGAGTAAACAAATTTTCCTAATCTTTCTGTTCAAGCGCCATCTAC ? 7.56 RPM ratio (pull-down/input)

Likewise for GATGATTGTTCTCCCAGCTGATGAATTTATTATGTCGAGTAAACAAATTTTCCTAATCTTTCTGTTCAAGCGCCATCTAC ? 5.83 RPM ratio (pull-down/input)

Likewise for GATGATTGTTCTCCCAGCTGATGAATTTCTTATGTCGAGTAAACAAATTTTCCTAATCTTTCTGTTCAAGCGCCATCTAC ? 0.657 RPM ratio (pull-down/input)

---

Target: MBP-FoxP3dN (Mus musculus, UniProt Q99JB6 188-423)
Sequence: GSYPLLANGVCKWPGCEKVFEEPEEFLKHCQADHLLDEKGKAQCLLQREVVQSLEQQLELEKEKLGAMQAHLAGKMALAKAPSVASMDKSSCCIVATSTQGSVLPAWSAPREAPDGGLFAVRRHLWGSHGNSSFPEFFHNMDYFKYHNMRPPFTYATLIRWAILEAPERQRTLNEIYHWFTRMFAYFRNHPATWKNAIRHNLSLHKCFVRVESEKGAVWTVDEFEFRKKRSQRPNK
Assay: PD-seq (MBP pull-down with sequencing); 20 mM Tris-HCl pH 7.5, 100 mM NaCl, 1.5 mM MgCl2, 0.4 uM protein, 0.1 uM dsDNA library, 30 min, room temperature, amylose pull-down; high values mean tight binding
Conditions: protein: recombinant; tags: His6-MBP; chain copies: 2; dsDNA, one strand shown
The full ranking holds about 16,000 sequences; the median of “rpm ratio (pull-down/input)” is about 0.5, and the highest 2% start at about 5.5. Many of the other results were omitted from the sample, so the highest values are more common in it than they were.
Let's look at some sequences and their measured binding signal.

SEQ TEXT	MEASUREMENT TARGET	binding signal
GATGATTGTTCTCCCAGCTGATGAATTCAGTATATCGAGTAAACAAATTTTCCTAATCTTTCTGTTCAAGCGCCATCTAC	MBP-FoxP3dN (Mus musculus, UniProt Q99JB6 188-423)	2.12 RPM ratio (pull-down/input)
GATGATTGTTCTCCCAGCTGATGAATTTTGTATATCGAGTAAACAAATTTTCCTAATCTTTCTGTTCAAGCGCCATCTAC	MBP-FoxP3dN (Mus musculus, UniProt Q99JB6 188-423)	7.43 RPM ratio (pull-down/input)
GATGATTGTTCTCCCAGCTGATGAATTCTTACGCTCGAGTAAACAAATTTTCCTAATCTTTCTGTTCAAGCGCCATCTAC	MBP-FoxP3dN (Mus musculus, UniProt Q99JB6 188-423)	0.256 RPM ratio (pull-down/input)

Switching to the query record.
So what binding signal did GATGATTGTTCTCCCAGCTGATGAATTGTATACATCGAGTAAACAAATTTTCCTAATCTTTCTGTTCAAGCGCCATCTAC get with MBP-FoxP3dN (Mus musculus, UniProt Q99JB6 188-423)? 5.87 RPM ratio (pull-down/input)
